target: T1, PUF4 RNA-binding domain (Saccharomyces cerevisiae, UniProt P25339 537-888)
T1 sequence: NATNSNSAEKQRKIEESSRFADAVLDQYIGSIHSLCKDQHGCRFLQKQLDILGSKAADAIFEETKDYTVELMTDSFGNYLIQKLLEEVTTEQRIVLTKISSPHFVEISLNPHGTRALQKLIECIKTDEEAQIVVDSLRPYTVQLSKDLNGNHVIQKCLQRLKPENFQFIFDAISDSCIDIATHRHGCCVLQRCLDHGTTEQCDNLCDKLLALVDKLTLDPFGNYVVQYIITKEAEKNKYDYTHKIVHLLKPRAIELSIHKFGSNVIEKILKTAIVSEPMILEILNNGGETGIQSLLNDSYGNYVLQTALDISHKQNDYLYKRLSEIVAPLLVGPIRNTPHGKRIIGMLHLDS
test: Mg; RNA-MaP; 20 mM Na-HEPES pH 7.4, 30 mM KOAc, 0.75 mM MgCl2, 0.1% Tween-20, 5% glycerol, 0.1 mg/mL BSA, 2 mM DTT; 25 C; 0.0125-409.6 nM protein
condition-context: tags: N-His6-TEV cleaved; C-SNAP kept, Cy3B-labelled; label: tethered on chip by stalled RNA polymerase
pKd: −log10 of the molar value.
List of pKd values.
measured-property: pKd

{"binder": "Id_ii_S2_P5E.3_K5.2_C5.2_[T-1G]_H5.2_A5.1_F5.1_T5.2_[A12T] (ssRNA) RNA: UUUGAUUAAUAUGAUAUCGUUCUUUCUCGUAUAUUAUUAUUUUCUUUCUCGAUAUCAUAUUAAUCUUU", "measured-property": "pKd", "value-modifier": "=", "value-observed": 7.93}
{"binder": "Ic_S2_P4E.1_K4.1_C4.1_H4.1_A4.1_[T5G]_[A6T]_F4.1_[A9G]_T4.1 (ssRNA) RNA: UUUGAUUAAUAUGAUAUCGUUCUUUCUUGUAGUUUGUUCUUUCUCGAUAUCAUAUUAAUCUUU", "measured-property": "pKd", "value-modifier": "=", "value-observed": 7.02}
{"binder": "Id_ii_S2_P5E.4_K5.3_C5.2_[T-1C]_H5.3_A5.1_F5.1_T5.2_[A12C] (ssRNA) RNA: UUUGAUUAAUAUGAUAUCGUUCUUUCUCCACACUUAUUAUCUUCUUUCUCGAUAUCAUAUUAAUCUUU", "measured-property": "pKd", "value-modifier": "<", "value-observed": 5.64}
{"binder": "UCUCUUUCUAUAUAUAUGUCUCUU (ssRNA) [Id_ii_S1_P3E.3_K3.2_C3.2_[C-2T]_[T-1C]_H3.2_A3.1_F3.1_T3.2_[A10G]]", "measured-property": "pKd", "value-modifier": "=", "value-observed": 5.92}
{"binder": "UCUCUUUGUACUGCCUCUCUU (ssRNA) [Ic_S1_P4E.1_K4.1_C4.1_H4.1_A4.1_[T5C]_[A6T]_[T7G]_F4.1_[T8C]_[A9C]_T4.1]", "measured-property": "pKd", "value-modifier": "=", "value-observed": 6.16}
{"binder": "Ic_S4_P4E.1_K4.1_C4.1_H4.1_A4.1_[A6T]_F4.1_[T8A]_T4.1 (ssRNA) RNA: UUUGACAACUGAUCGUUCUUUCUUGUAUUUAAUUCUUUCUCGAUCAGUUGUCUUU", "measured-property": "pKd", "value-modifier": "=", "value-observed": 7.68}
